// provenance: paper PMC2745083

Reported values of fraction unbound at 10 min for individual entries
experiment: Plasma protein binding assay; format: in vitro ADME; settings: baboon
# print the numeric value only

CCOCO[C@H]1C[C@@H](C(=O)OC)[C@]2(C)CC[C@H]3C(=O)O[C@H](c4ccoc4)C[C@]3(C)[C@H]2C1=O :: 0.234

Switching to the query record.
Q: Consider the compound shown here: COC(=O)[C@@H]1C[C@H](O)C(=O)[C@H]2[C@@]1(C)CC[C@H]1C(=O)O[C@H](c3ccoc3)C[C@]21C What is its recorded fraction unbound at 10 min?
Ans: 0.473
